target: human CRHR2 (Homo sapiens); construct: expressed in transfected cells; assay: cAMP assay, h-CRHR2 transfected SK-N-MC cells; assay type: cell-based; conditions: Table 12; normalized to the maximum response to h-SCP
Sequence (Q13324 whole entry): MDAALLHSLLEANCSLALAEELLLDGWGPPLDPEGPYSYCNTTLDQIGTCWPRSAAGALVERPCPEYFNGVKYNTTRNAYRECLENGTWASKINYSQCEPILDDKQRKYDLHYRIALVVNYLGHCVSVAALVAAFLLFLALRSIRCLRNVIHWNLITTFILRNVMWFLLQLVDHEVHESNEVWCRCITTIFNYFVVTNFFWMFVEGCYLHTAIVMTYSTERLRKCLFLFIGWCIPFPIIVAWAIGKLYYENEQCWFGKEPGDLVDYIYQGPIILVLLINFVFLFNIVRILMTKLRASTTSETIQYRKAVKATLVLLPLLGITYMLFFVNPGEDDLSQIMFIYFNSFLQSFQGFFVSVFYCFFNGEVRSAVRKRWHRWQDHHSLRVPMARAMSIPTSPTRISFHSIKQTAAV
Where no end group is shown, it is not given here.
parameter measured: αmax
Please respond with just the number, no unit label.

stdin: So what does the record say about αmax for KFTLSLDVPTNIMNLLFNIAKAKNLRAQAAANAHLMAQI-NH2 [SEQ ID NO: 107] ?
stdout: 111.3

stdin: So what does the record say about αmax for H-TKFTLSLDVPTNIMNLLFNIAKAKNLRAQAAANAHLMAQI-NH2 [SEQ ID NO: 1] ?
stdout: 98.68

stdin: So what does the record say about αmax for LSLDVPTNIMNLLFNIAKAKNLRAQAAANAHLMAQI-NH2 [SEQ ID NO: 109] ?
stdout: 109.6

stdin: So what does the record say about αmax for TLSLDVPTNIMNLLFNIAKAKNLRAQAAANAHLMAQI-NH2 [SEQ ID NO: 108] ?
stdout: 106.3

stdin: So what does the record say about αmax for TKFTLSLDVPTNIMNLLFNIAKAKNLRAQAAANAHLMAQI-OH [SEQ ID NO: 113] ?
stdout: 107.4
